- TGT: T1, recombinant extracellular domain of human 5T4 (soluble, produced in house) (human, UniProt Q13641 32-355)
- T1 construct: extracellular domain; The signal peptide lies within residues 1-355 and is not part of the secreted protein; also called 5T4-ECD; 5T4 recombinant protein
- T1 sequence: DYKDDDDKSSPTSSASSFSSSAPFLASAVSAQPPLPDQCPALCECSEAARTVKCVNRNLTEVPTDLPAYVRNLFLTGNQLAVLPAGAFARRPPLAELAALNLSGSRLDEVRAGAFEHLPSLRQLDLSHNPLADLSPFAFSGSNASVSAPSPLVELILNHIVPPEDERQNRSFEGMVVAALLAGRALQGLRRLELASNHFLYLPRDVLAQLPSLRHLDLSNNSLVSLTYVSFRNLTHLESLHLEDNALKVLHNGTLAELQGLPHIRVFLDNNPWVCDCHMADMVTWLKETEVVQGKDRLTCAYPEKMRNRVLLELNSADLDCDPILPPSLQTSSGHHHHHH
- PROTOCOL: ELISA on coated 5T4-ECD
pKd: −log10 of the molar value.
MEASURED ENDPOINT: pKd

# BINDER, MEASURED ENDPOINT, OBSERVED MEASUREMENT
records = [
    ("dsFv(5T4), humanized VH(5T4) SEQ ID 6 and VL(5T4) SEQ ID 19 in dsFv format (scFv, also called dsFvhu5T4; scFv) scFv: QVQLVQSGAEVKKPGASVKVSCKASGYSFTSYYMHWVKQSPGQCLEWIGRINPNNGVTLYNQKFKDRVTMTRDTSISTAYMELSRLRSDDTAVYYCARSTMITNYVMDYWGQGTLVTVSSASGGGGSGGGGSGGGGSAGDIVMTQSPDSLAVSLGERATINCKASQSVSNDVAWYQQKPGQPPKLLIYYTSSRYAGVPDRFSGSGSGTDFTLTISSLQAEDVAVYYCQQDYNSPPTFGCGTKLEIK", "pKd", 8.64),
]
